TARGET SYSTEM: Sodium-dependent serotonin transporter (Rattus norvegicus)
Sequence (P31652 whole entry): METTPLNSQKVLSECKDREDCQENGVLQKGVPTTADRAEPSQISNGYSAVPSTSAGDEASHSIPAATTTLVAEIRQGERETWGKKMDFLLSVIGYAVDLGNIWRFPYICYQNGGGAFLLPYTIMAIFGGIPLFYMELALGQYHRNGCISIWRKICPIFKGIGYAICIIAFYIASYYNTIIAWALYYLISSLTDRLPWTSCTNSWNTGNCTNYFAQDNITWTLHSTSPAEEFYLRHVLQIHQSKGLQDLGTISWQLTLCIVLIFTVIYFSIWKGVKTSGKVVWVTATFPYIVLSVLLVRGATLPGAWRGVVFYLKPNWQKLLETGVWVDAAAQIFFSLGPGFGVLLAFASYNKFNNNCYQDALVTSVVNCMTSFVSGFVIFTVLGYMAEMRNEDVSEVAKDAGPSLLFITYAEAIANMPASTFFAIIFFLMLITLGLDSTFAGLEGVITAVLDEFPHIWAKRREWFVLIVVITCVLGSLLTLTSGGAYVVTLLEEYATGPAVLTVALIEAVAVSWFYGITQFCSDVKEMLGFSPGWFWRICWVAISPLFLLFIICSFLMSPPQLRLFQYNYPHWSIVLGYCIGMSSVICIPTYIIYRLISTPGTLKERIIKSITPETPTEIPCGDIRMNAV
EXPERIMENT SUMMARY: Displacement of [3H]citalopram from rat cortical serotonin transporter (SERT)
// reported pKi for each item listed
# pKi = -log10(concentration in molar units)

Sample records with pKi:
[
  {
    "QUERY SMILES": "C=CCc1cc(N2CCNCC2)nc2ccc([N+](=O)[O-])cc12",
    "TARGET SYSTEM": "Sodium-dependent serotonin transporter (Rattus norvegicus)",
    "NUMERIC VALUE": 8.78
  },
  {
    "QUERY SMILES": "C=Cc1cc(N2CCNCC2)nc2ccc([N+](=O)[O-])cc12",
    "TARGET SYSTEM": "Sodium-dependent serotonin transporter (Rattus norvegicus)",
    "NUMERIC VALUE": 8.74
  },
  {
    "QUERY SMILES": "O=[N+]([O-])c1ccc2nc(N3CCNCC3)cc(-c3ccccc3)c2c1",
    "TARGET SYSTEM": "Sodium-dependent serotonin transporter (Rattus norvegicus)",
    "NUMERIC VALUE": 7.22
  },
  {
    "QUERY SMILES": "O=[N+]([O-])c1ccc2nc(N3CCNCC3)cc(Cl)c2c1",
    "TARGET SYSTEM": "Sodium-dependent serotonin transporter (Rattus norvegicus)",
    "NUMERIC VALUE": 10.52
  },
  {
    "QUERY SMILES": "O=[N+]([O-])c1ccc2nc(N3CCNCC3)cc(-c3cccs3)c2c1",
    "TARGET SYSTEM": "Sodium-dependent serotonin transporter (Rattus norvegicus)",
    "NUMERIC VALUE": 7.17
  }
]

Note: attention shifts to another entry.
IN: Reported pKi for O=[N+]([O-])c1ccc2nc(N3CCNCC3)cc(-c3ccco3)c2c1 : what is it?
OUT: 8.28

###

TARGET SYSTEM: Sodium-dependent serotonin transporter (Rattus norvegicus)
EXPERIMENT SUMMARY: Compound was evaluated for its ability to displace [3H]citalopram binding to the rat cortical Serotonin transporter
MEASUREMENT LABEL: pKi
# pKi = -log10(concentration in molar units)

IN: Reported pKi for O=CN1CCN(c2cc(Br)c3cc([N+](=O)[O-])ccc3n2)CC1 : what is it?
OUT: 8.76
